This collection of values is drawn from ChEMBL document CHEMBL6078683.

experiment: AUC (0 to infinity) in cynomolgous monkey at 1 mg/kg, iv; type: ADME, organism-based, Macaca fascicularis; conditions: cynomolgus monkey, in vivo
quantity_kind: AUC(0-inf) (ng·h/mL)
Answers are plain numbers, in ng·h/mL.

Consider the compound COC[C@H]1CN(C(=O)[C@]2(F)CN(C3CCCC3)C[C@H]2c2ccc(OC)cc2)C[C@@H]1c1ccc(C(F)(F)F)cc1N1CCC(C(=O)O)CC1.O=P(O)(O)O [DERSIMELAGON PHOSPHATE] and give its measured AUC(0-inf). 955

* * *

test: Half life in cynomolgous monkey at 3 mg/kg, po; type: ADME, organism-based, Macaca fascicularis; conditions: cynomolgus monkey, in vivo
quantity_kind: half-life (h)
Numbers only, in h.

For the compound COC[C@H]1CN(C(=O)[C@]2(F)CN(C3CCCC3)C[C@H]2c2ccc(OC)cc2)C[C@@H]1c1ccc(C(F)(F)F)cc1N1CCC(C(=O)O)CC1.O=P(O)(O)O [DERSIMELAGON PHOSPHATE] , what half-life is on record? 5.2

* * *

assay: Permeability in human Caco-2 cells; assay type: ADME, cell-based; details: read-out: permeability
quantity_kind: Papp (×10⁻⁶ cm/s)
One number for each entry, in ×10⁻⁶ cm/s.

molecule_smiles | unit_string | Papp
COc1ccc([C@@H]2CN(C3CC3)C[C@@]2(F)C(=O)N2CCC(c3ccc(C(F)(F)F)cc3N3CCC(C(=O)O)CC3)CC2)cc1 | ×10⁻⁶ cm/s | 18

Would you mind listing Papp for each of the following compounds?
1. COc1ccc([C@@H]2CN(C3CCCC3)C[C@@]2(F)C(=O)N2C[C@H](CO)[C@@H](c3ccc(C(F)(F)F)cc3N3CCC(C(=O)O)CC3)C2)cc1
2. CC(C)(CF)N1C[C@@H](C(=O)Nc2nccn2Cc2ccc(C(F)(F)F)cc2N2CCC(C(=O)O)CC2)[C@H](c2ccc(F)cc2F)C1
3. COC[C@H]1CN(C(=O)[C@]2(F)CN(C(C)(C)C)C[C@H]2c2ccc(OC)cc2)C[C@@H]1c1ccc(C(F)(F)F)cc1N1CCC(C(=O)O)CC1
4. COc1ccc([C@@H]2CN(C3CCCC3)C[C@@]2(F)C(=O)N2CCC(c3ccc(C(F)(F)F)cc3N3CCC(C(=O)O)CC3)CC2)cc1

2.1
20.3
7.7
14.1

* * *

test: Metabolic stability in mouse liver microsomes assessed as intrinsic clearance; assay type: ADME, Microsome; details: read-out: CLH
quantity_kind: log10 of microsomal CLint (log10 of the value in µL/min/mg)
Kindly note that the scale is log10 and the underlying microsomal CLint is in µL/min/mg.

molecule_smiles | log10 of microsomal CLint
COc1ccc([C@@H]2CN(C3CC3)C[C@@]2(F)C(=O)N2CCC(c3ccc(C(F)(F)F)cc3N3CCC(C(=O)O)CC3)CC2)cc1 | 1.32
Cc1ccc([C@@H]2CN(C(C)(C)C)C[C@@]2(F)C(=O)N2CCC(c3ccc(C(F)(F)F)cc3N3CCC(C(=O)O)CC3)CC2)cc1 | 1.91
CC(C)(C)N1C[C@@H](c2ccc(F)cc2F)[C@](F)(C(=O)N2CCC(c3ccc(C(F)(F)F)cc3N3CCC(C(=O)O)CC3)CC2)C1 | 2.16
COc1ccc([C@@H]2CN(C3CCCCC3)C[C@@]2(F)C(=O)N2CCC(c3ccc(C(F)(F)F)cc3N3CCC(C(=O)O)CC3)CC2)cc1 | 1.57
COc1ccc([C@@H]2CN(C3CCCC3)C[C@@]2(F)C(=O)N2CCC(c3ccc(C(F)(F)F)cc3N3CCC(C(=O)O)CC3)CC2)cc1 | 1.70

// for each compound in input: emit log10 of microsomal CLint
1. CC(C)(C)N1C[C@@H](C(=O)Nc2nccn2Cc2ccc(C(F)(F)F)cc2N2CCC(C(=O)O)CC2)[C@H](c2ccc(F)cc2F)C1
2. CC(C)(CF)N1C[C@@H](C(=O)Nc2nccn2Cc2ccc(C(F)(F)F)cc2N2CCC(C(=O)O)CC2)[C@H](c2ccc(F)cc2F)C1
3. COC[C@H]1CN(C(=O)[C@]2(F)CN(C(C)(C)C)C[C@H]2c2ccc(OC)cc2)C[C@@H]1c1ccc(C(F)(F)F)cc1N1CCC(C(=O)O)CC1

1.43
2.55
1.52

// returns reported log10 of microsomal CLint for input "COC[C@H]1CN(C(=O)[C@]2(F)CN(C3CCCC3)C[C@H]2c2ccc(OC)cc2)C[C@@H]1c1ccc(C(F)(F)F)cc1N1CCC(C(=O)O)CC1" 1.57
